target: SIK3 (Homo sapiens); construct: purchased SignalChem S12-11G-100; test: biochemical
Sequence (Q9Y2K2 whole entry): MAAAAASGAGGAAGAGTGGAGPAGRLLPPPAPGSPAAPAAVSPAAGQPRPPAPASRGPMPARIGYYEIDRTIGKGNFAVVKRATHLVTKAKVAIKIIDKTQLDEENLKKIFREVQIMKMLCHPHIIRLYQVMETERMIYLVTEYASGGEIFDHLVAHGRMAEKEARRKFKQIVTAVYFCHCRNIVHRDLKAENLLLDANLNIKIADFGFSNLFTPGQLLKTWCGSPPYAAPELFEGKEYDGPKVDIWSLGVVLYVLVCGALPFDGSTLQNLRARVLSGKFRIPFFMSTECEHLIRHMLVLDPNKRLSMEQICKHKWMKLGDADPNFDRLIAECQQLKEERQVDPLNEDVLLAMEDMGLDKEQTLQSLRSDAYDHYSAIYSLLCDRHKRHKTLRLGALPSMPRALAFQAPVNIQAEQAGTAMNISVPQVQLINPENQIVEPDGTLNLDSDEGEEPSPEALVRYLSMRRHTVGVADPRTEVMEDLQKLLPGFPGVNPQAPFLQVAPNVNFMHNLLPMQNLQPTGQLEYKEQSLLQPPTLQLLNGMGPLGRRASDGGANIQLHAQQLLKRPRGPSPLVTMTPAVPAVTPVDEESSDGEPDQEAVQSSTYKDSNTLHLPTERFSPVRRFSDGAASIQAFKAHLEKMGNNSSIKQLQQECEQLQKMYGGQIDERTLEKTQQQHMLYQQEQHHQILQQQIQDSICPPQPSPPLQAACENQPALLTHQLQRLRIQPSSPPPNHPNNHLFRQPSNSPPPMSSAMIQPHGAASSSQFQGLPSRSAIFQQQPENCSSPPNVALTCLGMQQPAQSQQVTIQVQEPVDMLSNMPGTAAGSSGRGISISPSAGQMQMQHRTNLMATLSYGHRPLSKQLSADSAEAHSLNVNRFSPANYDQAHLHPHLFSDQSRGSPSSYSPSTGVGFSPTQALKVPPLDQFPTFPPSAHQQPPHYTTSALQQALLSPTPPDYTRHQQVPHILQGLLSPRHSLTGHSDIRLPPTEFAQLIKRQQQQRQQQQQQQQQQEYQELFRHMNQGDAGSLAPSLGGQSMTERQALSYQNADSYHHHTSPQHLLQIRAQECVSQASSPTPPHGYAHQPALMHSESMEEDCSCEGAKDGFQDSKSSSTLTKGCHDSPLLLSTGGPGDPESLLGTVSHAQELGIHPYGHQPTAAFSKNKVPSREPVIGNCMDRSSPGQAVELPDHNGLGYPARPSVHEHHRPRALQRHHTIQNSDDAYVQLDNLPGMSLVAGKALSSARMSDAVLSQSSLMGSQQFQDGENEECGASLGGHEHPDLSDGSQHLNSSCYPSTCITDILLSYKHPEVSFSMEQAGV
pIC50: −log10 of the molar value.
Reported pIC50 values are given for each entry in this list.

{"molecule smiles": "COc1cc(-c2cnc3cc(-c4cnn(C)c4)ccn23)cc(OC)c1C(=O)N1CC(F)(F)C1", "target or system": "SIK3 (Homo sapiens)", "pIC50": "8.00 to 11.00"}
{"molecule smiles": "COc1ncc(-c2ccc3c(c2)ncn3-c2cc(OC)c(C(=O)NCC(F)(F)F)c(OC)c2)cn1", "target or system": "SIK3 (Homo sapiens)", "pIC50": "6.30 to 7.00"}
{"molecule smiles": "COc1cc(-c2cnc3cc(-c4cnn(C)c4)ccn23)cc(OC)c1C(=O)N[C@H]1C[C@@H]1C(F)F", "target or system": "SIK3 (Homo sapiens)", "pIC50": "8.00 to 11.00"}
{"molecule smiles": "COc1cc(-n2cnc3cc(-c4cnn(CC#N)c4)ccc32)cc(OC(F)F)c1C(=O)NC1CC1", "target or system": "SIK3 (Homo sapiens)", "pIC50": "8.00 to 11.00"}
{"molecule smiles": "COc1cc(-n2cnc3cc(-c4cnn(C5CN(C)C5)c4)ccc32)cc(OC)c1C(=O)NCC(F)(F)F", "target or system": "SIK3 (Homo sapiens)", "pIC50": "8.00 to 11.00"}
{"molecule smiles": "COc1cc(-n2cnc3cc(-c4cnn(C)c4)ccc32)cc(OC)c1C(=O)N[C@H]1CCCC[C@@H]1O", "target or system": "SIK3 (Homo sapiens)", "pIC50": "< 6.30"}
{"molecule smiles": "COc1cc(-n2cnc3cc(-c4cnn(C)c4)ccc32)cc(OC)c1C(=O)N1CCC(OC(F)(F)F)CC1", "target or system": "SIK3 (Homo sapiens)", "pIC50": "6.30 to 7.00"}
{"molecule smiles": "CCn1cc(-c2ccc3c(c2)ncn3-c2cc(OC)c(C(=O)NCCC(F)(F)F)c(OC)c2)cn1", "target or system": "SIK3 (Homo sapiens)", "pIC50": "7.00 to 8.00"}
{"molecule smiles": "CCNC(=O)c1c(OC)cc(-c2cnc3cc(-c4cnn(C5CCN(C)CC5)c4)ccn23)cc1OC(F)F", "target or system": "SIK3 (Homo sapiens)", "pIC50": "8.00 to 11.00"}
{"molecule smiles": "COc1cc(-c2cnc3cc(-c4ccnnc4)ccn23)cc(OC)c1C(=O)NCC(F)(F)F", "target or system": "SIK3 (Homo sapiens)", "pIC50": "8.00 to 11.00"}
{"molecule smiles": "COc1cc(-n2cnc3cc(-c4cnn(C)c4)ccc32)cc(OC)c1C(=O)NCC(F)(F)F", "target or system": "SIK3 (Homo sapiens)", "pIC50": "8.00 to 11.00"}
{"molecule smiles": "COc1cc(-c2cnc3cc(-c4cn(C)cn4)ccn23)cc(OC)c1C(=O)N[C@H](C)C(F)(F)F", "target or system": "SIK3 (Homo sapiens)", "pIC50": "8.00 to 11.00"}
{"molecule smiles": "COc1cc(-n2cnc3cc(-c4cnn(C)c4)ccc32)cc(OC)c1C(=O)N1CC(N2CCOCC2)C1", "target or system": "SIK3 (Homo sapiens)", "pIC50": "< 6.30"}
{"molecule smiles": "COc1cc(-n2cnc3cc(-c4cnn(C)c4)ccc32)cc(OC)c1C(=O)Nc1ccn(C)n1", "target or system": "SIK3 (Homo sapiens)", "pIC50": "6.30 to 7.00"}
{"molecule smiles": "COc1cc(-n2cnc3cc(-c4cnn(C)c4)ccc32)cc(OC)c1C(=O)NCCF", "target or system": "SIK3 (Homo sapiens)", "pIC50": "8.00 to 11.00"}

FYI, the data here is from patent US12065443B2.
